Test system: Mycolicibacterium smegmatis
test_summary: Antibacterial activity against Mycobacterium smegmatis harboring 23S rRNA A2453U mutant after 24 generation times
Type: functional
Catalogue of MIC values
Number only, in µg/mL; omit the unit.

compound=CCC[C@@H]1C[C@@H](C(=O)N[C@@H]([C@H]2O[C@H](SC)[C@H](O)[C@@H](O)[C@H]2O)[C@H](C)Cl)N(C)C1 target_of_assay="Mycolicibacterium smegmatis" observed=32
compound=CC(=O)NC[C@H]1CN(c2ccc(N3CCOCC3)c(F)c2)C(=O)O1 target_of_assay="Mycolicibacterium smegmatis" observed=4
compound=C=C[C@]1(C)C[C@@H](OC(=O)CSC(C)(C)CNC(=O)[C@H](N)C(C)C)[C@]2(C)[C@H](C)CC[C@]3(CCC(=O)[C@H]32)[C@@H](C)[C@@H]1O target_of_assay="Mycolicibacterium smegmatis" observed=64

From here, focus on the item given below.
Reported MIC for "O=C(N[C@H](CO)[C@H](O)c1ccc([N+](=O)[O-])cc1)C(Cl)Cl" : what is it?
32
